TARGET_OR_SYSTEM: SMARCA4 (Homo sapiens, UniProt P51532)
Sequence (P51532 whole entry): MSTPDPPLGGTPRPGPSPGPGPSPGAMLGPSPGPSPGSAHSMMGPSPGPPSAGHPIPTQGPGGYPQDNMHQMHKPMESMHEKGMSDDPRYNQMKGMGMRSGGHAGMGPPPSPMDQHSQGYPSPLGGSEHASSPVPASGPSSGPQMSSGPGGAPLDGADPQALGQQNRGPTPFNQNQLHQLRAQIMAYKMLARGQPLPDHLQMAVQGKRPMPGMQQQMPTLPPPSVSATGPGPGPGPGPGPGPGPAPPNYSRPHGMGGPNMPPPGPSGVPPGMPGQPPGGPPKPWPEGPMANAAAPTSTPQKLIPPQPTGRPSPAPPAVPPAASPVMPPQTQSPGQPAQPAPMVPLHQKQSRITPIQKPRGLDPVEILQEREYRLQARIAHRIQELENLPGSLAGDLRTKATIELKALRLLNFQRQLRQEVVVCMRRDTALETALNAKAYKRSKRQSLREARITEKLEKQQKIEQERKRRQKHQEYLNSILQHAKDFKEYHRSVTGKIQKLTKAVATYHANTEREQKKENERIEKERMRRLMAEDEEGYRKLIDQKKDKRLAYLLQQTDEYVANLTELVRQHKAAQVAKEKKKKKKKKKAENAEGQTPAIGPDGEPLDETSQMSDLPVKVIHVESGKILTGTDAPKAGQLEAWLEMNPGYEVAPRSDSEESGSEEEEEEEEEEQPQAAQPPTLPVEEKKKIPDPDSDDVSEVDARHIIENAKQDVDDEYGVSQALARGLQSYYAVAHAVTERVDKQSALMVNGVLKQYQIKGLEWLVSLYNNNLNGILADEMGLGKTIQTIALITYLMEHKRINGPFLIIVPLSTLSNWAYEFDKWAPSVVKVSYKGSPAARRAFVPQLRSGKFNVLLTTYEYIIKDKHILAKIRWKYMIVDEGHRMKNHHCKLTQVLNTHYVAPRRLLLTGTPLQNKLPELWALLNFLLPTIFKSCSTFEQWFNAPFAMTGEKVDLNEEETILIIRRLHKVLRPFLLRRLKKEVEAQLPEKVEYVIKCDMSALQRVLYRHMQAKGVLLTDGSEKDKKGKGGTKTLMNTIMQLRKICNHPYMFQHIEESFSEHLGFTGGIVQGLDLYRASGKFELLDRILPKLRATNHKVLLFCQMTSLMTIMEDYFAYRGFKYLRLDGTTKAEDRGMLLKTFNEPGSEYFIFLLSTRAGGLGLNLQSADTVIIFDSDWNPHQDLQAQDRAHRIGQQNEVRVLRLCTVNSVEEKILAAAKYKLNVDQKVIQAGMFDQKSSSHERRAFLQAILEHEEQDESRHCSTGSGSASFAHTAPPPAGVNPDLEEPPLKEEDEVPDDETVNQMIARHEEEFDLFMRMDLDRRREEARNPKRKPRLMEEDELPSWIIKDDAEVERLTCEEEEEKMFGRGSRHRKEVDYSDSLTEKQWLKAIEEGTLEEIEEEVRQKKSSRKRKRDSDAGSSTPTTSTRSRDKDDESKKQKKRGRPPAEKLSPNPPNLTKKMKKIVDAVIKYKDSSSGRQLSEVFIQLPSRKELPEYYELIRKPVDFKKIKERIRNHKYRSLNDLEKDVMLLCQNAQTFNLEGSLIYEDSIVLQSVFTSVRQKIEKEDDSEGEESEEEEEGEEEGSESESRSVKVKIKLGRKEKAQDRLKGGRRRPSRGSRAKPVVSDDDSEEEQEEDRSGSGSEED
MEASUREMENT_PROTOCOL: HiBiT assay for protein degradation, Hela SMARCA4-HiBiT cells (A series)
Assay type: cell-based
Parameters: fuse HiBiT to the carboxy terminus of SMARCA2 (Promega CS302365) or SMARCA4 (Promega CS3023225); host or cells: HeLa (CRISPR/Cas9 HiBiT knock-in)
PARTICULARS: Hela SMARCA4-HiBiT cells, 24 hours treatment
REPORTED_PROPERTY: SMARC A4 Hela HiBit DC50(nM)

1) Cc1ncsc1-c1ccc([C@H](C)NC(=O)[C@@H]2C[C@@H](O)CN2C(=O)[C@H](C2CCN(C(=O)[C@@H]3COCCO3)CC2)n2cc([C@H]3CC[C@H](CN4CCC(c5ccc6c(c5)-n5c(nc(=O)c7c(Cl)cccc75)C65CCCCC5)CC4)CC3)nn2)cc1; No fit
2) Cc1ncsc1-c1ccc([C@H](CN2CCOCC2)NC(=O)[C@@H]2C[C@@H](O)CN2C(=O)[C@H](C2CCCCC2)n2cc([C@H]3CC[C@H](CN4CCC(c5ccc6c(c5)-n5c(nc(=O)c7c(Cl)cccc75)C6(C)C)CC4)CC3)nn2)cc1; No fit
3) Cc1ncsc1-c1ccc([C@H](C)NC(=O)[C@@H]2C[C@@H](O)CN2C(=O)[C@@H](NC(=O)[C@H]2CC[C@H](CN3CCC(N4CCC(c5ccc6c(c5)C5(CCCCC5)c5nc(=O)c7c(Cl)cccc7n5-6)CC4)CC3)CC2)C(C)(C)C)cc1; No fit

###

DC50 listing for selected molecules.
TARGET_OR_SYSTEM: SMARCA4 (Homo sapiens, UniProt P51532)
MEASUREMENT_PROTOCOL: HiBiT assay for protein degradation, Hela SMARCA4-HiBiT cells (A series)
Format: cell-based
Parameters: fuse HiBiT to the carboxy terminus of SMARCA2 (Promega CS302365) or SMARCA4 (Promega CS3023225); host or cells: HeLa (CRISPR/Cas9 HiBiT knock-in)
PARTICULARS: Hela SMARCA4-HiBiT cells, 24 hours treatment; read-out: SMARC A4 Hela HiBit DC50

1) Cc1ncsc1-c1ccc([C@H](CO)NC(=O)[C@@H]2C[C@@H](O)CN2C(=O)[C@H](C2CCCCC2)n2cc([C@H]3CC[C@H](CN4CCC(c5ccc6c(c5)-n5c(nc(=O)c7c(Br)cccc75)C65CCCCC5)CC4)CC3)nn2)cc1; < 10 nM
2) Cc1ccncc1-c1ccc([C@H](CN2CCOCC2)NC(=O)[C@@H]2C[C@@H](O)CN2C(=O)[C@@H](n2cc([C@H]3CC[C@H](CN4CCC(c5ccc6c(c5)-n5c(nc(=O)c7c(Cl)cccc75)C65CCCCC5)CC4)CC3)nn2)C(C)(C)C)cc1; > 1000 nM
3) O=C(O)c1ncsc1-c1ccc([C@H](CN2CCOCC2)NC(=O)[C@@H]2C[C@@H](O)CN2C(=O)[C@H](C2CCOCC2)n2cc([C@H]3CC[C@H](CN4CCC(c5ccc6c(c5)-n5c(nc(=O)c7c(Cl)cccc75)C65CCCCC5)CC4)CC3)nn2)cc1; > 1000 nM

Next, consider the following molecule.
Tell me reported DC50 for `CC(C)(C)[C@@H](C(=O)N1C[C@H](O)C[C@H]1C(=O)N[C@@H](CN1CCOCC1)c1ccc(-c2cccnc2)cc1)n1cc([C@H]2CC[C@H](CN3CCC(c4ccc5c(c4)-n4c(nc(=O)c6c(Cl)cccc64)C54CCCCC4)CC3)CC2)nn1` , tested with SMARCA4 (Homo sapiens, UniProt P51532). 100 to 1000 nM
